Target: human CD40 (human, UniProt P25942 21-193, limits assumed)
Sequence (P25942 21-193 limits assumed): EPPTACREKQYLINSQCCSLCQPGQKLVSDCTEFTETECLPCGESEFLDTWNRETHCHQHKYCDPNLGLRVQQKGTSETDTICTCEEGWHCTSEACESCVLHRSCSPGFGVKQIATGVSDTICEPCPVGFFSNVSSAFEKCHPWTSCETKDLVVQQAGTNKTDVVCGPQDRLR
Test: Octet
REPORTED ENDPOINT: pKd
Bear in mind: pKd is minus log10 of a mol/L concentration; give just that figure.

binder="29H10 (antibody, V domains shown, also called 4877-1) VH: QVQLVQSGAEVTKPGASVKVSCKASGYTFAGYYMHWVRQAPGQGLEWMGWINPHSGGTNYAQKFQDRVTMTRDTSINTAYMELSRLRSDDTAVYYCARERISMVRGVGHNWFAPWGQGTLVTVSS VL: DIQMTQSPSSLSASVGDRVTITCRASQDISNNLAWFQQKPGKPPKSLMYAASSLHSGVPSTFSGSGSGTDFTFTISSLQPEDFATYYCQQYNSYPLTFGGGTKVEIRR" numeric_result=9.39

In the following, a different binder is considered.
stdin: // query pKd value for entry 4G7 (antibody, IgG4, V domains shown, also called 4869-1) VH: QVQLVQSGAEVKKPGASVKVSCKASGYTFAGYYMHWVRQAPGQGLEWMGWINPDSGGTNFAQQFQGRVTMTRDTSISTAYMEVSRLRSDDTAVFYCAREKITMTGIYFDYWGQGTLVTVSS VL: DIQMTQSPSSLSASVGDILTITCRASQNITTYLNWYQQKPGKAPNLLISAASRLRSGVPSRFSGSGSGTDFTLTISSLQPVDFTTFYCQQTFTTPWTFGQGTKVEIKR
stdout: 9.06
